- test method notes: microbe, parasite or virus in culture
- Type: functional
- experimental setup: Mycobacterium tuberculosis
Calls of active or inactive are those of the source.
Recorded CC50 by entry

Answered cases to consult:
Cc1ccc(S(=O)(=O)n2ccc3c(OCCOCCNCc4ccc(F)cc4)cccc32)cc1 : 13.3 µM (active)
OCCCNc1cc(-c2ccnc(Nc3cccc(Cl)c3)n2)ccn1 : < 0.08 µM (active)

Query: Which CC50 is listed for Cc1ccc(-c2noc(C3CCCN(C(=O)c4ccc(C(C)(C)C)cc4)C3)n2)o1 (centres undefined) ?
Result: > 40 µM (active)

Query: Which CC50 is listed for "CCCCn1cnc2c(c(-c3ccccc3)c(-c3ccccc3)n2Cc2ccco2)c1=N" ?
Result: > 40 µM (active)

----------
- test method notes: HIV-1 AD8 envelope cell-cell fusion blockers – cherry-pick, dose response (AID 652062);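 further: luciferase signal from cell-cell fusion driven by HIV-1 clade B AD8 Env; potency is for inhibitors of fusion seen as a drop in luminescence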
- Type: functional, cell-based
Activity calls are given as the source filed them.
outcome measure: AC50

O=C1COc2ccc(-c3cs/c(=N\c4ccc(OC(F)F)cc4)n3CC3CCCO3)cc2N1 (stereo not given) : 18.6 µM (active)

Query: Which AC50 is listed for "O=C(CNc1ccc(F)cc1)c1ccccc1" ?
Result: 4.61 µM (active)

Query: Which AC50 is listed for "COc1ccccc1NC(=O)N[C@@H]1CC[C@H](CC(=O)N[C@H](C)c2ccccc2)O[C@@H]1CO" ?
Result: 2.61 µM (active)

Query: Which AC50 is listed for "COc1ccccc1-c1c(C(F)(F)F)n[nH]c1-c1ccc(O)cc1O" ?
Result: 19 µM (active)

Query: Which AC50 is listed for COc1ccc(OC2C(=O)N(Cc3ccc4c(c3)OCO4)C2c2cccs2)cc1 (stereo not given) ?
Result: 1.71 µM (active)

----------
- Test system: BJ
- test method notes: BJ-TERT fibroblast viability loss – cell-based, RAS-independent, luminescence, dose response (AID 1933)
- Type: functional
- experimental setup: Homo sapiens
Calls of active or inactive are those of the source.
Recorded EC50 by entry

Query: Which EC50 is listed for "N/C(=C\C(=O)c1cc(Cl)ccc1O)C(Cl)(Cl)Cl" ?
Result: 3.92 µM (active)

Query: Which EC50 is listed for "O=C(COc1ccccc1-c1ccccc1)N/N=C/c1ccc2ccccc2c1" ?
Result: 0.364 µM (active)

Query: Which EC50 is listed for "Cc1nn(-c2ccccc2)c(C)c1/C=N/NC(=O)c1cc(-c2cccs2)[nH]n1" ?
Result: 0.66 µM (inconclusive)

Query: Which EC50 is listed for "Cc1ccc(C)c(/C=C/C(=O)c2ccccc(=O)c2O)c1" ?
Result: 17.2 µM (inconclusive)

Query: Which EC50 is listed for "CCN(CC)c1ccc(/C=C/c2cccc[n+]2C)c(OC)c1" ?
Result: 7.77 µM (active)

----------
Recorded EC50 by entry
- system: UniProtKB Q9XUB2
- Sequence (Q9XUB2 whole entry): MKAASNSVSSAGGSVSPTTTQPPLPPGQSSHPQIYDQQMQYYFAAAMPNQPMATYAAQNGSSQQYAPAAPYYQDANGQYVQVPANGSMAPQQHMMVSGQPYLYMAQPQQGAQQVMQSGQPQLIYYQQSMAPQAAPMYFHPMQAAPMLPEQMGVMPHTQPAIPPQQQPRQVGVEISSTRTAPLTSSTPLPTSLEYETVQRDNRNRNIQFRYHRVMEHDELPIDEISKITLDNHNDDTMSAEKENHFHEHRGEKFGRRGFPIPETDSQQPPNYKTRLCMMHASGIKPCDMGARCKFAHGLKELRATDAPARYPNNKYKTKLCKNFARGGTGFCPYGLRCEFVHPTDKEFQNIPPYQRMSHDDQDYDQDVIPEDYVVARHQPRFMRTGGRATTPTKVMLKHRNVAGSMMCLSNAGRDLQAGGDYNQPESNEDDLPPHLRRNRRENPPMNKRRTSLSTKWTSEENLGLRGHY
- test method notes: potency of MEX-5 RNA-binding blockers – biochemical, C. elegans, fluorescence polarization, dose response (AID 1960)
Calls of active or inactive are those of the source.

Answered cases to consult:
CC1(OC(=O)C2CCCC2)C(=O)C=C2C=C(c3ccsc3)OC=C2C1=O (configuration not stated) : 37.1 µM (active)
N=c1c(S(=O)(=O)c2ccc(Cl)cc2)cc2c(=O)n3ccccc3nc2n1C1CCCC1 : 148 µM (inconclusive)
COc1ccc(-n2c(C)cc(/C=C3\SC(=S)N(Cc4ccco4)C3=O)c2C)cc1 : 121 µM (active)
COc1ccccc1Oc1c[nH]nc1-c1ccc(OCC(=O)NN)cc1O : 120 µM (active)
Cc1cc(C)cc(N2C(=O)/C(=C/Nc3ccc(N4CCOCC4)cc3)C(=O)NC2=S)c1 : 5.42 µM (inconclusive)

Query: Which EC50 is listed for CCOC(=O)C1Nc2ccc(OC(F)(F)F)cc2C2C=CCC12 (configuration not stated) ?
Result: > 300 µM (not active)

Query: Which EC50 is listed for COC(=O)CCC(=O)OC1(C)C(=O)C2=CN(CCCOC(C)C)C(c3ccc(OC)cc3)=CC2=C(Br)C1=O (configuration not stated) ?
Result: 42 µM (active)

Query: Which EC50 is listed for "CC(C)(C)N=C(S)NCCc1ccccc1" ?
Result: > 300 µM (not active)

Query: Which EC50 is listed for "Cc1cc(C(=O)O)ccc1-c1ccc(/C=C2\NC(=O)N(Cc3ccc(F)cc3)C2=O)o1" ?
Result: 191 µM (active)

Query: Which EC50 is listed for "Cc1ccc(NC(=O)COc2ccc(/C=C3/S/C(=N/c4ccccc4)N(Cc4cccnc4)C3=O)cc2)cc1" ?
Result: > 300 µM (not active)

Query: Which EC50 is listed for "Cc1cccc(NC(=O)/C(C#N)=C\c2cc(C)n(-c3ccc(C(=O)O)cc3)c2C)c1" ?
Result: > 300 µM (not active)

Query: Which EC50 is listed for "Cc1ccc(-c2ccc(CCC(=O)O)n2-c2cccc(C(=O)O)c2)cc1" ?
Result: > 300 µM (not active)

Query: Which EC50 is listed for "N#CC(C#N)=Cc1ccc(NC(=O)c2ccc(Br)cc2)cc1" ?
Result: > 300 µM (not active)

Query: Which EC50 is listed for "COc1ccc(C(=O)/C=C/c2ccc(N3CCCCC3)c([N+](=O)[O-])c2)c(OC)c1" ?
Result: > 300 µM (not active)

Query: Which EC50 is listed for "O=C1OCc2cc(-n3cccc3)ccc21" ?
Result: > 300 µM (not active)

Query: Which EC50 is listed for "CC1(C)CC2=Nc3ccccc3SC2=C(O)C1" ?
Result: 59.3 µM (active)

Query: Which EC50 is listed for "CC1(C)CC(=O)C2=C(C1)OC(N)=C(C#N)[C@@]21C(=O)N(CC(N)=O)c2ccccc21" ?
Result: > 300 µM (not active)

----------
Recorded IC50 by entry
- system: Fatty acid synthase (Homo sapiens)
- Sequence (P49327 whole entry): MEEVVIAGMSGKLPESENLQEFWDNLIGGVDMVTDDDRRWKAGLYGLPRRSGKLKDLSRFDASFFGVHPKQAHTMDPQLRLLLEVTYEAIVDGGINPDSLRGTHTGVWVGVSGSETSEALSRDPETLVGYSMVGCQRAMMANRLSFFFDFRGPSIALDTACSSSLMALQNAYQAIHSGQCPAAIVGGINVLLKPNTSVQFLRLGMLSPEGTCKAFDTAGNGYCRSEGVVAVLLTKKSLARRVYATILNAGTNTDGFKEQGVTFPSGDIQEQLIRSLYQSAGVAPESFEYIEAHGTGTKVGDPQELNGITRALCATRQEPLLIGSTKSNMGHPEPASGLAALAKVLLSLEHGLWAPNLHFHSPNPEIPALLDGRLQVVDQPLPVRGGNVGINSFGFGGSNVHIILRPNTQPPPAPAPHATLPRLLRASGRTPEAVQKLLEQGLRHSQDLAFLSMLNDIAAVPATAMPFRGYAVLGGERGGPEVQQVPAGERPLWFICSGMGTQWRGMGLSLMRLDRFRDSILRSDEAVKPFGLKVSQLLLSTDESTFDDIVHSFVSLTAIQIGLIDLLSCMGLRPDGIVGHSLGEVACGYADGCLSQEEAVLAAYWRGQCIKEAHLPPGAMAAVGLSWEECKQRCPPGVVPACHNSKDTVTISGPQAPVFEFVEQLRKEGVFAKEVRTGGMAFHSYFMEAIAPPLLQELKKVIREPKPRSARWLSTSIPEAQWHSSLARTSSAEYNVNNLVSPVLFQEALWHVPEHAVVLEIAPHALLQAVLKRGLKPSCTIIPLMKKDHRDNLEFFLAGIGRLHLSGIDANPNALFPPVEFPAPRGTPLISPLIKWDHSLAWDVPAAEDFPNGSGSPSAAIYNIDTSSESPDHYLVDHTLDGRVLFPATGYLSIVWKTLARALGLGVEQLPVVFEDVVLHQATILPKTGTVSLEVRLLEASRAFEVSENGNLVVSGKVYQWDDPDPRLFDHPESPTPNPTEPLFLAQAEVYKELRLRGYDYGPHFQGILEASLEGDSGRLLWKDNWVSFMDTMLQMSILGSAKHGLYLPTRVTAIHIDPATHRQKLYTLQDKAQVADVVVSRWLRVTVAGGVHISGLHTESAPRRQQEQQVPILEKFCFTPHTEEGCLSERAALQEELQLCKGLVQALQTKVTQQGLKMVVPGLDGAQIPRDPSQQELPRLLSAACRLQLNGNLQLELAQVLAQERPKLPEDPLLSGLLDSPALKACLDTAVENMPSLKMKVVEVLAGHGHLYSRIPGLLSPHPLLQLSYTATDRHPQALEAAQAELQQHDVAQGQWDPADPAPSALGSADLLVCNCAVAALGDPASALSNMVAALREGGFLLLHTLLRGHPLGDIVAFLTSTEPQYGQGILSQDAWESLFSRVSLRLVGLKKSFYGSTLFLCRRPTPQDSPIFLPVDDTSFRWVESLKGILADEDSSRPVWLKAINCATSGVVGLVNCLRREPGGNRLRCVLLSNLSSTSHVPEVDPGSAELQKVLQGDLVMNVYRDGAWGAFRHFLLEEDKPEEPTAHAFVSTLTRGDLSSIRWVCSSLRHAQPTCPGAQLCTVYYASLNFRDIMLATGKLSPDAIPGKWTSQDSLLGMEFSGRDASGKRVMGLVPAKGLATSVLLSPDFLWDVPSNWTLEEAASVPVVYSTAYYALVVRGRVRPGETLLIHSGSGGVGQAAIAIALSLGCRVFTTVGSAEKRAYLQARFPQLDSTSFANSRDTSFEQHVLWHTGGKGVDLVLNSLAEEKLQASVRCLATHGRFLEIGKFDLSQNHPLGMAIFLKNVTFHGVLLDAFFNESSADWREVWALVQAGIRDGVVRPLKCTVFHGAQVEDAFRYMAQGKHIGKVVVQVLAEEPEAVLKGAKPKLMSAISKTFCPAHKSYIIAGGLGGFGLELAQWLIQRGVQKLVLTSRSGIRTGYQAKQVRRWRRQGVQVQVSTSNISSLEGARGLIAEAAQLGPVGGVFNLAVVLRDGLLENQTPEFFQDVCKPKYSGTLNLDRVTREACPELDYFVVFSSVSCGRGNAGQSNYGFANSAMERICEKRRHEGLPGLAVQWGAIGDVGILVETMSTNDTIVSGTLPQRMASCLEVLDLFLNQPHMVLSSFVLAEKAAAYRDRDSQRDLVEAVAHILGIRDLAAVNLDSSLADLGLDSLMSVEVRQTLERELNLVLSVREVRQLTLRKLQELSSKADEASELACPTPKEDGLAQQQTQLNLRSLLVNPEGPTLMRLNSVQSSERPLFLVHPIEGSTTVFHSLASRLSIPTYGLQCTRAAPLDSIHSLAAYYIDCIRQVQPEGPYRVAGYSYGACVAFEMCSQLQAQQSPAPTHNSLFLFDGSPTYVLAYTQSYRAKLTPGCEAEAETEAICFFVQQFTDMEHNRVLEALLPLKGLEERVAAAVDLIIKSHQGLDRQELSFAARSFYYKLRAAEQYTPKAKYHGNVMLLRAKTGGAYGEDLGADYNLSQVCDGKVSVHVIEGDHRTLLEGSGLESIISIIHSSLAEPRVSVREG
- test method notes: inhibition of human FAS-TE enzyme activity – biochemical, endpoint fluorescence intensity, uHTS hits, dose response (AID 624327);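 further: fluorescence from hydrolysis of an O-methyl fluorescein acyl ester substrate by the enzyme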
- Type: functional
Active and inactive are the calls of the source.

O=C(NC(=S)Nc1ccccc1)c1cc([N+](=O)[O-])ccc1N1CCOCC1 : 17.2 µM (active)
CN1C[C@H](C(=O)N[C@]2(C)O[C@@]3(O)[C@@H]4CCCN4C(=O)[C@H](Cc4ccccc4)N3C2=O)CC2c3cccc4[nH]cc(c34)C[C@H]21 (some centres undefined) : 10.4 µM (active)
N#Cc1c(C(F)(F)F)cc(-c2cccs2)nc1SC(C(=O)O)c1ccccc1 (centres undefined) : 4.45 µM (active)
CC(C)(C)c1ccc(C(=O)N2CCC2(C)C(=O)Nc2cccc(C#N)c2)cc1 (centres undefined) : 5.47 µM (active)
O=C(COC(=O)c1cc([N+](=O)[O-])ccc1N1CCOCC1)Nc1ccc(Cl)cn1 : 5.2 µM (active)
COc1ccc(/C=C(/NC(=O)c2ccc([N+](=O)[O-])cc2)C(=O)NC(C)(C)C)cc1 : 3.45 µM (active)
CCCCCCn1c(=O)c(F)cn(Cc2ccc(OC)c([N+](=O)[O-])c2)c1=O : 10.2 µM (active)
O=C(Nn1c(C2CCCCC2)nc2ccccc2c1=O)c1ccc(Cl)c([N+](=O)[O-])c1 : 12.8 µM (active)

Query: Which IC50 is listed for "COc1ccc(C(=O)N/C(=C\c2cn(S(=O)(=O)N(C)C)c3ccccc23)C(=O)NCCCN2CCOCC2)cc1" ?
Result: 8.48 µM (active)

----------
- system: Replicative DNA helicase DnaB (Mycobacterium tuberculosis)
- test method notes: DnaB intein splicing inhibitors, dose response, biochemical, cell-free fluorescence (AID 449749)
- Format: functional
Active and inactive are the calls of the source.
Pick one and only one: 1 (yes) for active, 0 (no) for inactive

CCCCCc1cc(=O)oc2c(C(CCN3CCCC(C)C3)c3ccc4c(c3)OCO4)c(OC)cc(OC)c12 (stereo not drawn) : 1 (yes)
Cc1c(C#N)c(NC(=O)CCl)n(Cc2ccc(F)cc2)c1C : 1 (yes)
COc1ccc(/C=C2/SC(=S)N(CCCC(=O)Nc3cccc(O)c3)C2=O)cc1 : 0 (no)
CC(=O)c1ccc(-c2cccc(-c3nc4ccccn4c3NC3CCCCC3)c2)cc1 : 1 (yes)
Cc1onc(-c2ccccc2)c1-c1nc2ccccc2c(=O)o1 : 1 (yes)

Query: # lookup: test call for "CCC(=O)N(C1=C(NC)C(=O)c2ccccc2C1=O)C(C)C"
Result: 1 (yes)

Query: # lookup: test call for "CCc1cccc(NC(=O)CSCc2cc(O)[nH]n2)c1"
Result: 1 (yes)

Query: # lookup: test call for "Cc1ccc(S(=O)(=O)NC(=O)Nc2ccc(N(C)C)cc2)cc1"
Result: 0 (no)

----------
- system: Aminopeptidase N (Plasmodium falciparum FcB1/Columbia, UniProt O96935)
- Sequence (O96935 whole entry): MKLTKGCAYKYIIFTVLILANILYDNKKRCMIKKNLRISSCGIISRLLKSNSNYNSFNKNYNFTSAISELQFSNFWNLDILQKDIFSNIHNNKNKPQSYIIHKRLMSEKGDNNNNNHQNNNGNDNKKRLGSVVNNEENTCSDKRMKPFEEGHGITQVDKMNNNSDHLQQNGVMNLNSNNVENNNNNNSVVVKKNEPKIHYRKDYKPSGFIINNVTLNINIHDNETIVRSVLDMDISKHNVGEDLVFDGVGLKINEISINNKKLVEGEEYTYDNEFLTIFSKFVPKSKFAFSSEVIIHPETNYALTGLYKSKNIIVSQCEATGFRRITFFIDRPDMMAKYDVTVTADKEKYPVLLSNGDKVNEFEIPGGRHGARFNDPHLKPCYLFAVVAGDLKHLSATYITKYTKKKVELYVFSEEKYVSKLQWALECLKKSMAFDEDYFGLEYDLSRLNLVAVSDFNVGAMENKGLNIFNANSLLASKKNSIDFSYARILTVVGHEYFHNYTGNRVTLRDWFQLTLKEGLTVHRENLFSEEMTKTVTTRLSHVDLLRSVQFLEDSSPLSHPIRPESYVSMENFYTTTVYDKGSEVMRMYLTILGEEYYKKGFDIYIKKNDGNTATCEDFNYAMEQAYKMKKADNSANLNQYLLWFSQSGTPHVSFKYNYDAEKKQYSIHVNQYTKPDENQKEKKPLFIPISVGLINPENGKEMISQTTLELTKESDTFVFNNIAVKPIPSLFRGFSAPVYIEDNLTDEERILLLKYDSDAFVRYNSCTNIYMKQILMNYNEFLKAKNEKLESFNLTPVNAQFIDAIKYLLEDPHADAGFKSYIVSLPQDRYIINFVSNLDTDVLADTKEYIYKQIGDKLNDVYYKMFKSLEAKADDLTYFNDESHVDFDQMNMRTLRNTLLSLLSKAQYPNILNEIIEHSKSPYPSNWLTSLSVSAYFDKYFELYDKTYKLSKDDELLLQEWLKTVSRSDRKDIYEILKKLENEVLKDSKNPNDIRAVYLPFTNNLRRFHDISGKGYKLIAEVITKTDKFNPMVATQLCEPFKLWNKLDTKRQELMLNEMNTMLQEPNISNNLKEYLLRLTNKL
- test method notes: malaria alanyl aminopeptidase activity blockers – biochemical, fluorogenic H-Leu-NHMec substrate, 1536-well (AID 1445)
- Set-up: species or system Plasmodium falciparum 3D7, 3D7
Calls of active or inactive are those of the source.
outcome measure: IC50

Answered cases to consult:
COc1cc(NS(=O)(=O)c2ccc(NC(=S)NC(=O)c3cccs3)cc2)nc(OC)n1 : 38.9 µM (active)
Cc1ccc(S(=O)(=O)NNC2=NS(=O)(=O)c3ccccc32)c(C)c1 : 9.97 µM (active)
CCCCc1nc(NCCNC(=O)c2ccco2)c(C#N)c2c1CSC(C)(C)C2 : 85.3 µM (active)
CC1=C(C#N)c2nc(N)c(C#N)c(C)c2/C1=C\c1ccc(-c2ccccc2C(=O)O)o1 : 52.2 µM (active)

Query: Value wanted: IC50 (Aminopeptidase N (Plasmodium falciparum FcB1/Columbia, UniProt O96935)) of entry "CCN(CC)c1ccc(S(=O)(=O)N(CC)CC)cc1NC(=O)c1cccnc1"
Result: 28.5 µM (active)

Query: Value wanted: IC50 (Aminopeptidase N (Plasmodium falciparum FcB1/Columbia, UniProt O96935)) of entry "COc1ccc(S(=O)(=O)NC2=NC(=O)/C(=C/c3ccco3)S2)cc1"
Result: 99.7 µM (active)

Query: Value wanted: IC50 (Aminopeptidase N (Plasmodium falciparum FcB1/Columbia, UniProt O96935)) of entry "CCn1c(CNC(=O)c2cccs2)nnc1SCC(=O)NCCc1ccccc1"
Result: 90 µM (active)

Query: Value wanted: IC50 (Aminopeptidase N (Plasmodium falciparum FcB1/Columbia, UniProt O96935)) of entry O=C(O)CC1SC(N/N=C/c2ccc(-c3ccc(Cl)c([N+](=O)[O-])c3)o2)=NC1=O (stereo not drawn)
Result: 54.1 µM (active)
